Source: paper PMC9030932

study-system: human dopamine transporter (hDAT) (Homo sapiens)
Sequence (Q01959 whole entry): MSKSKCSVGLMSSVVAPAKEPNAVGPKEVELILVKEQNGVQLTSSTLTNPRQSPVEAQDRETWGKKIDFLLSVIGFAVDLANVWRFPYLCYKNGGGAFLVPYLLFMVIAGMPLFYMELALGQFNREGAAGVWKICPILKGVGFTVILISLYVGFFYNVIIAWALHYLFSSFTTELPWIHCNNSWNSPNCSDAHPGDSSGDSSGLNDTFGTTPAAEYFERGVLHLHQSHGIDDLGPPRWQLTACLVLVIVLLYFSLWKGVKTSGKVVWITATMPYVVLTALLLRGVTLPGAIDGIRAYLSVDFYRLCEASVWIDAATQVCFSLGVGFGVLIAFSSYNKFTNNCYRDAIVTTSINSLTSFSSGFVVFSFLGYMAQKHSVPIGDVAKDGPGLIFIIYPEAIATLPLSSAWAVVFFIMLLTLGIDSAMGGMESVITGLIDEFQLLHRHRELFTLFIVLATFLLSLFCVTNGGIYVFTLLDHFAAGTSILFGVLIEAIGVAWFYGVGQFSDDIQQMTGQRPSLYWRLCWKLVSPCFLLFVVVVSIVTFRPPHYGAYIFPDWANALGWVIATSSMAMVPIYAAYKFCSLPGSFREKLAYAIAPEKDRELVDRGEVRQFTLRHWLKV
test-method-notes: Neurotransmitter transporter uptake assay, HEK-hDAT
Format: cell-based
experimental-setup: read-out: % Inhibition at 10 μM hDAT
reported-endpoint: inhibition at 10 µM (%)
Please state the figure in %; there is no need to write the unit.

INSERT INTO assay_data (compound, reported_endpoint, number) VALUES
  ('CN1c2ccccc2C(NCCCCC(=O)NCCc2c[nH]c3ccc(O)cc23)c2ccc(Cl)cc2S1(=O)=O (stereo not shown) [Compound 11d]', 'inhibition at 10 µM', 41.3);

Value of inhibition at 10 µM reported for the compound CC(C)C[C@H](CNC(=O)CCCCCCNC1c2ccccc2N(C)S(=O)(=O)c2cc(Cl)ccc21)CC(=O)O (stereo partly shown) is 17.6

Value of inhibition at 10 µM reported for the compound CNCCC(Oc1ccccc1OC)c1ccccc1 (stereo not shown) [Nisoxetine, reference compound] is 79.7

Value of inhibition at 10 µM reported for the compound CN1c2ccccc2C(NCCCCCC(=O)NCCc2c[nH]c3ccc(O)cc23)c2ccc(Cl)cc2S1(=O)=O (stereo not shown) [Compound 11e] is 40.2

====

Catalogue of inhibition at 10 µM readings, one per entry.
study-system: human norepinephrine transporter (hNET) (Homo sapiens, UniProt P23975)
Sequence (P23975 whole entry): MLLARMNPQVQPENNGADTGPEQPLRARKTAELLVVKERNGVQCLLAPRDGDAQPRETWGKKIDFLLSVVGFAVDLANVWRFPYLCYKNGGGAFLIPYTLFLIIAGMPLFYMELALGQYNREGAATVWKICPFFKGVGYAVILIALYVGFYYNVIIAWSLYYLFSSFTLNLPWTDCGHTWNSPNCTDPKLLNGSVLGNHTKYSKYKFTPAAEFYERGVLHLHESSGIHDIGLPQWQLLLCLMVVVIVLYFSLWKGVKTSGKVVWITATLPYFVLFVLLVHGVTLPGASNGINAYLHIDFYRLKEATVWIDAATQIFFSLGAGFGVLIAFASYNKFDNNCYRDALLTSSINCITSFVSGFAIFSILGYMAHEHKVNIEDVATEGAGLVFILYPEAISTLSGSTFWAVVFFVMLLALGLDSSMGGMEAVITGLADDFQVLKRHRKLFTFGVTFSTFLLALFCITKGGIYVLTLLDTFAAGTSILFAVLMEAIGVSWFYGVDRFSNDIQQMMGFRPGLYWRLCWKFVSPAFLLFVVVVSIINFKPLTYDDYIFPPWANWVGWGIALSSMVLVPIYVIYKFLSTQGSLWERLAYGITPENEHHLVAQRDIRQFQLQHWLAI
test-method-notes: Neurotransmitter transporter uptake assay, HEK-hNET
Type: cell-based
experimental-setup: 10 μM, HEK-hNET, mean ± SEM, n = 3–6; read-out: % Inhibition at 10 μM hNET
Please state the figure in %; there is no need to write the unit.

Some compounds with recorded inhibition at 10 µM:
INSERT INTO assay_data (compound, study_system, unit_descriptor, number) VALUES
  ('CN1c2ccccc2C(NCCCCCCC(=O)NCCc2c[nH]c3ccc(O)cc23)c2ccc(Cl)cc2S1(=O)=O (stereo not shown)', 'human norepinephrine transporter (hNET) (Homo sapiens, UniProt P23975)', '%', 30.1),
  ('CN1c2ccccc2C(NCCCCCC(=O)NCCc2c[nH]c3ccc(O)cc23)c2ccc(Cl)cc2S1(=O)=O (stereo not shown) [Compound 11e]', 'human norepinephrine transporter (hNET) (Homo sapiens, UniProt P23975)', '%', 30.1),
  ('CC(C)C[C@H](CNC(=O)CCCCCCNC1c2ccccc2N(C)S(=O)(=O)c2cc(Cl)ccc21)CC(=O)O (stereo partly shown)', 'human norepinephrine transporter (hNET) (Homo sapiens, UniProt P23975)', '%', 21);

Value of inhibition at 10 µM reported for the compound CN1c2ccccc2C(NCC(=O)NCCc2c[nH]c3ccc(O)cc23)c2ccc(Cl)cc2S1(=O)=O (stereo not shown) [Compound 11a] is 13.2
